system: biotinyl-Phe-oxazolone; assay: self-aminoacylation, catalytic enhancement (BFO) (fold over background); higher = more active; k-Seq, kA / k0A0; sequences stand for … in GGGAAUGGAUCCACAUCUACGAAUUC…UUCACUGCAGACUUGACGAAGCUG
Variants at the floor of the assay were thinned out.

Residue Sequence: AUUCACCUAGGUCAACUGGUG [Fam2.2 aminoacylation ribozyme variant]
System: biotinyl-Phe-oxazolone
self-aminoacylation: 15.9
//
Residue Sequence: CUACUUCGAACAAUCGGUCGG [Fam1A.1 aminoacylation ribozyme variant]
System: biotinyl-Phe-oxazolone
self-aminoacylation: 2.37
//
Residue Sequence: UAUUUUGCUAAUAGUCGCAAG [Fam3.1 aminoacylation ribozyme variant]
System: biotinyl-Phe-oxazolone
self-aminoacylation: 1.99
//
Residue Sequence: CCCCACCUCAAGCAAUCGGUC [Fam1B.1 aminoacylation ribozyme variant]
System: biotinyl-Phe-oxazolone
self-aminoacylation: 5.97
//
Residue Sequence: UAGUUUGCUAAUAGUCCCAAG [Fam3.1 aminoacylation ribozyme variant]
System: biotinyl-Phe-oxazolone
self-aminoacylation: 2.1
//
Residue Sequence: AAGUUUGCCAAUAGUCGCAAU [Fam3.1 aminoacylation ribozyme variant]
System: biotinyl-Phe-oxazolone
self-aminoacylation: 9.89
//
Residue Sequence: AUUACCCGGGCCAUCGAGUGA [Fam2.1 aminoacylation ribozyme variant]
System: biotinyl-Phe-oxazolone
self-aminoacylation: 41.7
//
Residue Sequence: AUUACCCUGGACAUCCAGUGA [Fam2.1 aminoacylation ribozyme variant]
System: biotinyl-Phe-oxazolone
self-aminoacylation: 15.9
//
Residue Sequence: CCACUUCAAAAAAUCGGUCUG [Fam1A.1 aminoacylation ribozyme variant]
System: biotinyl-Phe-oxazolone
self-aminoacylation: 15.2
//
Residue Sequence: AUUACCCUGGUCAUCGCGGGA [Fam2.1 aminoacylation ribozyme variant]
System: biotinyl-Phe-oxazolone
self-aminoacylation: 29.3
//
Residue Sequence: CCACACUUCAAGCAAUCAGUU [Fam1B.1 aminoacylation ribozyme variant]
System: biotinyl-Phe-oxazolone
self-aminoacylation: 2.42
//
Residue Sequence: CAACUUCAAACAAUCGGUCUG [Fam1A.1 aminoacylation ribozyme variant]
System: biotinyl-Phe-oxazolone
self-aminoacylation: 97.7
//
Residue Sequence: AUUACCCUUGUCAUUGAGUGA [Fam2.1 aminoacylation ribozyme variant]
System: biotinyl-Phe-oxazolone
self-aminoacylation: 34
//
Residue Sequence: AUUCACUUAGGUCAACGGGUG [Fam2.2 aminoacylation ribozyme variant]
System: biotinyl-Phe-oxazolone
self-aminoacylation: 21.2
//
Residue Sequence: AUGUAUGCUAAUAGUCGCAAG [Fam3.1 aminoacylation ribozyme variant]
System: biotinyl-Phe-oxazolone
self-aminoacylation: 3.25
//
Residue Sequence: UCACACUUCAAGCAAUCGAUC [Fam1B.1 aminoacylation ribozyme variant]
System: biotinyl-Phe-oxazolone
self-aminoacylation: 1.49
//
Residue Sequence: AAGUUUGCUAAUAGGCGCUAG [Fam3.1 aminoacylation ribozyme variant]
System: biotinyl-Phe-oxazolone
self-aminoacylation: 0.86
//
Residue Sequence: AUUCCCGUGGUCAUCGAGUGA [Fam2.1 aminoacylation ribozyme variant]
System: biotinyl-Phe-oxazolone
self-aminoacylation: 63.3
